ASSAY SUMMARY: plasma pharmacokinetics and neural tissue exposure (AUC) in dogs
SETTINGS: dog, plasma, 500 umol/kg

COMPOUND: COCC(O)Cn1ccnc1[N+](=O)[O-] (stereo not shown) [MIS, misonidazole, reference compound]
MEASUREMENT UNIT: µM·h
AUC: 3680

---

ASSAY SUMMARY: 1-electron reduction potential / electron affinity
Assay type: physicochemical
SETTINGS: Table 1
ATTRIBUTE MEASURED: E7^1 (1-electron reduction potential) (mV)

MOLECULE: CCOCC(O)Cn1ccnc1[N+](=O)[O-] (stereo not drawn) [Compound 2]
MEASURED VALUE: -391
//
MOLECULE: O=C(Cn1ccnc1[N+](=O)[O-])NCCO [SR-2508]
MEASURED VALUE: -388
//
MOLECULE: O=[N+]([O-])c1nccn1CCN1CCOCC1
MEASURED VALUE: -390
//
MOLECULE: O=[N+]([O-])c1nccn1CC(O)CF (stereo not drawn) [Compound 4]
MEASURED VALUE: -383
//
MOLECULE: O=[N+]([O-])c1nccn1CC(O)CCl (stereo not drawn) [Compound 1]
MEASURED VALUE: -384
//
MOLECULE: O=C(Cn1ccnc1[N+](=O)[O-])N(CCO)CCO [SR-2555]
MEASURED VALUE: -398
//
MOLECULE: O=C(Cn1ccnc1[N+](=O)[O-])NCC(O)CO (stereo not drawn) [Compound 10]
MEASURED VALUE: -392
//
MOLECULE: COCC(O)Cn1ccnc1[N+](=O)[O-] (stereo not drawn) [MIS, misonidazole, reference compound]
MEASURED VALUE: -389
//
MOLECULE: O=[N+]([O-])c1nccn1CC(O)CO (stereo not drawn) [Compound 6]
MEASURED VALUE: -389

---

ASSAY SUMMARY: physchem
SETTINGS: octanol:water
Entries whose logP is below -0.9 take 1; entries at or above -0.9 take 0.

COMPOUND: C[S+]([O-])CCn1ccnc1[N+](=O)[O-] (stereo not drawn)
ASSIGNED LABEL: 1
//
COMPOUND: O=C(Cn1ccnc1[N+](=O)[O-])NCC(O)CO (stereo not drawn)
ASSIGNED LABEL: 1
//
COMPOUND: O=C(Cn1ccnc1[N+](=O)[O-])N(CCO)CCO
ASSIGNED LABEL: 1
//
COMPOUND: O=[N+]([O-])c1nccn1CCN1CCOCC1
ASSIGNED LABEL: 0
//
COMPOUND: CCOCC(O)Cn1ccnc1[N+](=O)[O-] (stereo not drawn)
ASSIGNED LABEL: 0
//
COMPOUND: O=[N+]([O-])c1nccn1CC(O)CCl (stereo not drawn)
ASSIGNED LABEL: 0
//
COMPOUND: O=[N+]([O-])c1nccn1CC(O)CF (stereo not drawn)
ASSIGNED LABEL: 0
//
COMPOUND: O=C(Cn1ccnc1[N+](=O)[O-])NCCO
ASSIGNED LABEL: 1

---

ASSAY SUMMARY: plasma pharmacokinetics and neural tissue exposure (AUC) in dogs
SETTINGS: dog, cerebrospinal fluid, 500 umol/kg, AUC CSF, dogs, standardized for 0.5 mmole/kg

SMILES REPR: O=C(Cn1ccnc1[N+](=O)[O-])N(CCO)CCO
MEASUREMENT UNIT: µM·h
AUC: 170
